In this section we review reported self-cleavage values for a set of variants.
B1: HDV Ribozyme (parent)
chain: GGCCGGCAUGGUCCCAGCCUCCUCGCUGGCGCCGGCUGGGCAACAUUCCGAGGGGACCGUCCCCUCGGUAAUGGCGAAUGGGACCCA

- Variants of: B1
- METHOD_SUMMARY: self-cleavage, relative activity (ratio to wild type); higher = more cleavage; co-transcriptional
Just the number.

Solved cases (3 shown):
[[record]]
variant_label = "C36U C49A"
metric = "self-cleavage"
test_value = 0.795

[[record]]
variant_label = "C57U G68C"
metric = "self-cleavage"
test_value = 0.85

[[record]]
variant_label = "G6A G59U"
metric = "self-cleavage"
test_value = 0.755


### Prompt Returns the measured self-cleavage for the input variant. Input: G52C G67U
### Response 0.753

### Prompt Okay, and G5U G59C ?
### Response 0.415

### Prompt Okay, and G38U G39A ?
### Response 0.0415

### Prompt Okay, and C18A A43G ?
### Response 0.192

### Prompt Okay, and C15G G38A ?
### Response 0

### Prompt Okay, and A42C A78C ?
### Response 0.169

### Prompt Okay, and C14U C61A ?
### Response 1.14

### Prompt Okay, and G1C C75G ?
### Response 0.178
